Data provenance is paper PMC4552634.

System: P. falciparum stage V gametocytes
Parameters: BacTiter-Glo ATP luminescence viability of purified stage V gametocytes in 384-well plates, per cent inhibition versus DMSO
Settings: 48 h, 5 µM; inhibitor
Hit rate of the full screen: of about 13,000 compounds, about 3,200 (25%) showed an effect of 50% or more. The list shows a part of the results.
Reported % Inhibition values for the following compounds.
Observation type: % Inhibition (%)

Compound | Units | Result number
CCC(C(C)C)n1ccc2c3c(N)nc(N)nc3ccc21 (centres unmarked) [TCMDC-137872] | % | 10.31
COC(=O)[C@@H](NC(=O)[C@@H](Nc1ccc(C#N)c2ccccc12)C(C)(C)C)c1ccc(O)cc1 [TCMDC-136607] | % | 78.97
COc1cc(F)c2ncc(Cl)c([C@@H](O)CN3CCC(NCc4ccc5c(n4)NC(=O)CO5)CC3)c2c1 [TCMDC-135488] | % | 20.51
CCC(CC)C(CC(=O)NC(C)(C)CCc1ccccc1OC)Nc1ccc(C#N)c2ccccc12 (centres unmarked) [TCMDC-132308] | % | 3.423
CC(C)C[C@H](Nc1ccc(C#N)c2ccccc12)C(=O)N[C@@H]1CCCc2ccccc21 [TCMDC-136088] | % | 59.15
Cc1ccccc1Cn1ccc2c3c(N)nc(N)nc3ccc21 [TCMDC-137812] | % | 70.17
Cc1cc2c(cc1C(F)(F)F)N(C(=O)Nc1ccc(OCCN(C)C)c(C(F)(F)F)c1)CC2 [TCMDC-139850] | % | 18.6
CCc1cc2c(cc1OCCN(C)C)N(C(=O)Nc1ccc(-c3ccncc3)c(Cl)c1)CC2 [TCMDC-139214] | % | 8.963

---

Tested on: P. falciparum stage V gametocytes
Design: BacTiter-Glo ATP luminescence viability of purified stage V gametocytes in 384-well plates, per cent inhibition versus DMSO
Conditions: 48 h, 5 µM; inhibitor
Among all 13,000 compounds or so, about 3,200 (25%) showed an effect of 50% or more. This is one part of the list.
Tick label 1 if % Inhibition is 20% or greater. Tick label 0 if % Inhibition is less than 20%.

Compound | Category
CNCc1ccc(-c2cccc(CNCc3ccc(-c4ccccc4)cc3)c2)c(C(=O)OC)c1 [TCMDC-139615] | label 1
COc1cccc(CNC(=O)c2cc(CNCc3ccccc3)ccc2-c2cccc(CNCc3ccc(-c4ccccc4)cc3)c2)c1 [TCMDC-139616] | label 0
COc1ccc2nccc([C@@H](O)CN3CCC(NC(=O)C(c4cc5ccccc5o4)N4CCN(c5ccc(F)cc5)CC4)CC3)c2c1 (stereo partly shown) [TCMDC-140996] | label 0
CN1Cc2ccc(NS(=O)(=O)c3ccc(-c4ccoc4)cc3)cc2C1 [TCMDC-141495] | label 1
NCC1CCCN1Cc1cccc(-c2ccc(-c3nc4ccc(C(F)(F)F)cc4[nH]3)cc2)c1 (stereo not shown) [TCMDC-132996] | label 1
NCC1CCCN1Cc1ccc(-c2ccc(-c3nc4cc(C(F)(F)F)ccc4[nH]3)s2)cc1.O=C(O)C(F)(F)F (stereo not shown) [TCMDC-133000] | label 0
COc1cc(F)c2ncc(Cl)c([C@H](O)CN3CCC(NCc4ccc5c(n4)NC(=O)CO5)CC3)c2c1 [TCMDC-135487] | label 0
CN1CCC(Oc2ccc(CN3CC[C@H](NC(=O)c4ccc(Cl)c(Cl)c4)C3)cc2Cl)C1 (stereo partly shown) [TCMDC-140276] | label 1
OCCN1CCN(Cc2ccc(-c3cccc(-c4nc5ccc(C(F)(F)F)cc5[nH]4)c3)cc2)CC1 [TCMDC-133024] | label 1
COC(=O)c1cccc(CNCc2cccc(-c3csc(-c4nc5ccccc5[nH]4)c3)c2)c1 [TCMDC-132943] | label 0
COc1ccc2ncc(F)c(CCN3C4CCC3CC(NCc3ccc5c(c3)OCCO5)C4)c2n1 (stereo not shown) [TCMDC-135638] | label 1
CCN(CC)CCNc1nc(C=Cc2ccc(Cl)cc2)nc2cc3ccccc3cc12 [TCMDC-125777] | label 1
NCC1CCCN1Cc1ccc(-c2cccc(-c3nc4ccc(C(F)(F)F)cc4[nH]3)c2)cc1 (stereo not shown) [TCMDC-132990] | label 1
CN1CCC(Oc2ccc(CN3CC[C@H](NC(=O)c4ccc(Cl)c(Cl)c4)C3)c3ccccc23)C1 (stereo partly shown) [TCMDC-140271] | label 1
Nc1ccc2nc(C=Cc3ccc(Cl)cc3)[nH]c2c1 [TCMDC-123608] | label 0
Nc1nc(N)c2cc(NS(=O)(=O)c3ccc(-c4ccccc4)cc3)ccc2n1 [TCMDC-135430] | label 0
